experiment: Viability of human T lymphocytes (MTT assay, 48 h); assay type: cell-based; details: human; 1 μM, 48 hours; read-out: decrease in cell viability

# Molecule, cytotoxicity at 48 h, 1 μM
measured = [
    ("CC(=O)O[C@H]1OC[C@@H]2C=C([C@]3(C)CCCC(C)(C)C3)CC[C@H]12 [Compound 29b]", "15 to 25%"),
]

* * *

target: UniProt:P62937
Sequence (P62937 whole entry): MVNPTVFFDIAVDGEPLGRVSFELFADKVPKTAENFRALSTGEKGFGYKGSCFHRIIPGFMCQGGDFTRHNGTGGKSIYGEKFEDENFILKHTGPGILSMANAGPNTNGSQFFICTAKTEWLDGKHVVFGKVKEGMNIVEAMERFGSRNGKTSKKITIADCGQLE

# Molecule, Kd
measured = [
    ("C/C=C1\\C([C@@]2(C)CCCC(C)(C)C2)=CC[C@H]2[C@H](OC(C)=O)O[C@H](OC(C)=O)[C@@H]12 [gracilin A, reference compound]", "2530 nM"),
]
